# SYSTEM UNDER TEST: UniProtKB P00734
pIC50: −log10 of the molar value.
Binary call on pIC50: Y from 4 upward, N beneath that.

MOLECULE: N=C(N)c1ccc2ccc(CN3c4ccc(OC5CCNCC5)cc4C=CS3(=O)=O)cc2c1 [Example 1]
CLASS LABEL: N

Query: Confirm if pIC50 reported for the molecule N=C(N)c1ccc2ccc(CN3c4ccc(OC5CCNCC5)cc4CCS3(=O)=O)cc2c1 [Example 4] is 4 or above.
Response: N

Query: What do we get for CCOC(=O)CS(=O)(=O)N(Cc1cc2cc(C(=N)N)ccc2s1)c1ccc(OC2CCN(C(C)=N)CC2)cc1 [Compound 42] ?
Response: Y
